The origin of these recorded values is patent US10442866.

# testSystem: T1, recombinant human OX40-his (Sino Biological, Cat#:10481-H03H) (human, UniProt P43489 29-214)
# T1 construct: bought protein; also called hOX40-his; not shown: His tag
# T1 sequence: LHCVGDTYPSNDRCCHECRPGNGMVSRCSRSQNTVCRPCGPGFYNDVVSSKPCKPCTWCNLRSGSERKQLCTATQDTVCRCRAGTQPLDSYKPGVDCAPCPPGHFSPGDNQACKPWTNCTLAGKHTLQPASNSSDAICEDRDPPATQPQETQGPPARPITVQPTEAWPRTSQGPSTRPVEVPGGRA
# protocolDescription: SPR Biacore 8K, OX40-His on chip, antibody injected
The reader will find reported koff values listed item by item below.

binder	unitOfMeasurement	koff
68C8-VH3VL3 (antibody, human IgG1, kappa, V domains shown, humanized; also called 68C8-H3L3) VH: QVQLVQSGAEVKKPGASVKVSCKVSGDTFTSYWITWVRQRPGQGLEWIGDIHPGSGSTNNNEKFKNRVTLTVDTSTDTAYMELSSLRSEDTAVYYCATLRPYYFVYWGQGTLVTVSS VL: DIQMTQSPSSLSASVGDRVTITCRASQDISNYLNWYQQKPGKTVKLLIYYTSRLLSGVPSRFSGSGSGTDYTLTISSLQPEDFATYFCQQGNTLPLTFGQGTRLEIKR	s⁻¹	0.000821
71H8-VH2VL2 (antibody, human IgG1, kappa, V domains shown, humanized; also called 71H8-H2L2) VH: QVQLVQSGAEVKKPGASVKVSCKVSGYTFTSYWITWVRQRPGKGLEWMGDIYPGSGSTNQNEKFKSRVTMTVDTSTDTAYMELSSLRSEDTAVYYCATLRPYYFVYWGQGTLVTVSS VL: DIQMTQSPSSLSASVGDRVTITCRASQDISNYLNWYQQKPGKTPKLLIYYTSRLLSGVPSRFSGSGSGTDYTLTISSLQPEDFATYYCQQGNTLPLTFGQGTRLEIKR	s⁻¹	0.00172
68C8-VH2VL2 (antibody, human IgG1, kappa, V domains shown, humanized; also called 68C8-H2L2) VH: QVQLVQSGAEVKKPGASVKVSCKVSGDTFTSYWITWVRQRPGKGLEWMGDIHPGSGSTNNNEKFKNRVTMTVDTSTDTAYMELSSLRSEDTAVYYCATLRPYYFVYWGQGTLVTVSS VL: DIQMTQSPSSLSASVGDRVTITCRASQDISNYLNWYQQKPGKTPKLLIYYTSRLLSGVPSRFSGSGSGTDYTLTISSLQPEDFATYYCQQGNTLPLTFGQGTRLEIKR	s⁻¹	0.00105
